method-notes: Phase 1 crossover PK study: oral solution fed/fasted vs IV infusion in healthy subjects
Format: in vivo, human
setup-conditions: human, plasma, po, 3.3 mg/kg, oral 3.3 mg/kg fed state, human plasma; read-out: AUC24 GMean
attribute-measured: AUC (ng·h/mL)
Respond numerically; units are ng·h/mL and should not be typed.

Ask | Please give the measured AUC for this compound: Cn1cc(C2=C(c3coc4ccc(F)cc34)C(=O)NC2=O)c2cc3c(cc21)OCO3
Reply | 3420

---

method-notes: Quantitative solubility by HPLC in organic solvents and surfactants
Format: physicochemical
setup-conditions: THF with Tween 80 10% w/v, organic solvent or mixture, thermodynamic from solid; THF, Tween 80 10% w/v; read-out: Solubility (n = 2) by HPLC
attribute-measured: solubility (mg/mL)
Respond numerically; units are mg/mL and should not be typed.

Ask | Please give the measured solubility for this compound: Cn1cc(C2=C(c3coc4ccc(F)cc34)C(=O)NC2=O)c2cc3c(cc21)OCO3 [elraglusib]
Reply | 49.8

---

method-notes: Phase 1 crossover PK study: oral solution fed/fasted vs IV infusion in healthy subjects
Format: in vivo, human
setup-conditions: human, plasma, po, 3.3 mg/kg, oral 3.3 mg/kg fasted state, human plasma; read-out: Cmax GMean
attribute-measured: Cmax (ng/mL)
Respond numerically; units are ng/mL and should not be typed.

Ask | Please give the measured Cmax for this compound: Cn1cc(C2=C(c3coc4ccc(F)cc34)C(=O)NC2=O)c2cc3c(cc21)OCO3
Reply | 133

---

method-notes: Phase 1 crossover PK study: oral solution fed/fasted vs IV infusion in healthy subjects
Format: in vivo, human
setup-conditions: human, plasma, po, 3.3 mg/kg, oral 3.3 mg/kg fed state, human plasma; read-out: AUClast Arithmetic Mean
attribute-measured: AUC(0-t) (ng·h/mL)
Respond numerically; units are ng·h/mL and should not be typed.

Ask | Please give the measured AUC(0-t) for this molecule: Cn1cc(C2=C(c3coc4ccc(F)cc34)C(=O)NC2=O)c2cc3c(cc21)OCO3
Reply | 4890

---

method-notes: Phase 1 crossover PK study: oral solution fed/fasted vs IV infusion in healthy subjects
Format: in vivo, human
setup-conditions: human, plasma, po, 3.3 mg/kg, oral 3.3 mg/kg fasted state, human plasma; read-out: AUC72 Median
attribute-measured: AUC (ng·h/mL)
Respond numerically; units are ng·h/mL and should not be typed.

Ask | Please give the measured AUC for this compound: Cn1cc(C2=C(c3coc4ccc(F)cc34)C(=O)NC2=O)c2cc3c(cc21)OCO3 [elraglusib]
Reply | 1530

---

method-notes: Phase 1 crossover PK study: oral solution fed/fasted vs IV infusion in healthy subjects
Assay type: in vivo, human
setup-conditions: human, plasma, iv, 3.3 mg/kg, IV infusion 3.3 mg/kg, human plasma; read-out: AUC96 GMean
attribute-measured: AUC (ng·h/mL)
Respond numerically; units are ng·h/mL and should not be typed.

Ask | Please give the measured AUC for this compound: Cn1cc(C2=C(c3coc4ccc(F)cc34)C(=O)NC2=O)c2cc3c(cc21)OCO3
Reply | 7810

---

method-notes: Phase 1 crossover PK study: oral solution fed/fasted vs IV infusion in healthy subjects
Assay type: in vivo, human
setup-conditions: human, plasma, po, 3.3 mg/kg, oral 3.3 mg/kg fasted state, human plasma; read-out: AUC96 Arithmetic Mean
attribute-measured: AUC

Ask | Please give the measured AUC for this compound: Cn1cc(C2=C(c3coc4ccc(F)cc34)C(=O)NC2=O)c2cc3c(cc21)OCO3
Reply | 1780 ng·h/mL

---

method-notes: in vivo
Set-up: species or system Beagle dogs
setup-conditions: male, Beagle, dog, iv, 20 mg/kg, t1/2
attribute-measured: half-life (h)
Respond numerically; units are h and should not be typed.

Ask | Please give the measured half-life for this molecule: Cn1cc(C2=C(c3coc4ccc(F)cc34)C(=O)NC2=O)c2cc3c(cc21)OCO3
Reply | 6.05

---

method-notes: Phase 1 crossover PK study: oral solution fed/fasted vs IV infusion in healthy subjects
Type: in vivo, human
setup-conditions: human, plasma, po, 3.3 mg/kg, oral 3.3 mg/kg fed state, human plasma; read-out: CL/F Median (converted)
attribute-measured: CL/F (L/h/kg)
Respond numerically; units are L/h/kg and should not be typed.

Ask | Please give the measured CL/F for this compound: Cn1cc(C2=C(c3coc4ccc(F)cc34)C(=O)NC2=O)c2cc3c(cc21)OCO3
Reply | 0.658

---

method-notes: Phase 1 crossover PK study: oral solution fed/fasted vs IV infusion in healthy subjects
Type: in vivo, human
setup-conditions: human, plasma, iv, 3.3 mg/kg, IV infusion 3.3 mg/kg, human plasma; read-out: AUC48 Arithmetic Mean
attribute-measured: AUC (ng·h/mL)
Respond numerically; units are ng·h/mL and should not be typed.

Ask | Please give the measured AUC for this compound: Cn1cc(C2=C(c3coc4ccc(F)cc34)C(=O)NC2=O)c2cc3c(cc21)OCO3
Reply | 7590

---

method-notes: Phase 1 crossover PK study: oral solution fed/fasted vs IV infusion in healthy subjects
Type: in vivo, human
setup-conditions: human, plasma, po, 3.3 mg/kg, oral 3.3 mg/kg fasted state, human plasma; read-out: AUC24 Arithmetic Mean
attribute-measured: AUC

Ask | Please give the measured AUC for this molecule: Cn1cc(C2=C(c3coc4ccc(F)cc34)C(=O)NC2=O)c2cc3c(cc21)OCO3
Reply | 1230 ng·h/mL

---

method-notes: Phase 1 crossover PK study: oral solution fed/fasted vs IV infusion in healthy subjects
Format: in vivo, human
setup-conditions: human, plasma, po, 3.3 mg/kg, oral 3.3 mg/kg fed state, human plasma; read-out: AUC96 GMean
attribute-measured: AUC (ng·h/mL)
Respond numerically; units are ng·h/mL and should not be typed.

Ask | Please give the measured AUC for this compound: Cn1cc(C2=C(c3coc4ccc(F)cc34)C(=O)NC2=O)c2cc3c(cc21)OCO3 [elraglusib]
Reply | 4250

---

method-notes: Phase 1 crossover PK study: oral solution fed/fasted vs IV infusion in healthy subjects
Type: in vivo, human
setup-conditions: human, plasma, iv, 3.3 mg/kg, IV infusion 3.3 mg/kg, human plasma; read-out: Tmax Arithmetic Mean
attribute-measured: Tmax (h)
Respond numerically; units are h and should not be typed.

Ask | Please give the measured Tmax for this compound: Cn1cc(C2=C(c3coc4ccc(F)cc34)C(=O)NC2=O)c2cc3c(cc21)OCO3
Reply | 1.22

---

method-notes: Phase 1 crossover PK study: oral solution fed/fasted vs IV infusion in healthy subjects
Assay type: in vivo, human
setup-conditions: human, plasma, po, human, fasting, dose increasing from 180 mg to 320 mg; read-out: oral bioavailability, FCmax based regression
attribute-measured: bioavailability

Ask | Please give the measured bioavailability for this compound: Cn1cc(C2=C(c3coc4ccc(F)cc34)C(=O)NC2=O)c2cc3c(cc21)OCO3
Reply | 4 to 16%

---

method-notes: Phase 1 crossover PK study: oral solution fed/fasted vs IV infusion in healthy subjects
Format: in vivo, human
setup-conditions: human, plasma, po, 3.3 mg/kg, oral 3.3 mg/kg fed state, human plasma; read-out: AUC24 Median
attribute-measured: AUC
State the value with its unit after it.

Ask | Please give the measured AUC for this molecule: Cn1cc(C2=C(c3coc4ccc(F)cc34)C(=O)NC2=O)c2cc3c(cc21)OCO3 [elraglusib]
Reply | 3990 ng·h/mL

---

method-notes: in vivo
Design: species or system Beagle dogs
setup-conditions: male, Beagle, dog, po, 20 mg/kg, AUCINF
attribute-measured: AUC(0-inf)
State the value with its unit after it.

Ask | Please give the measured AUC(0-inf) for this molecule: Cn1cc(C2=C(c3coc4ccc(F)cc34)C(=O)NC2=O)c2cc3c(cc21)OCO3 [elraglusib]
Reply | 22600 ng·h/mL

---

method-notes: Phase 1 crossover PK study: oral solution fed/fasted vs IV infusion in healthy subjects
Type: in vivo, human
setup-conditions: human, plasma, iv, 3.3 mg/kg, IV infusion 3.3 mg/kg, human plasma; read-out: AUC48 Median
attribute-measured: AUC

Ask | Please give the measured AUC for this compound: Cn1cc(C2=C(c3coc4ccc(F)cc34)C(=O)NC2=O)c2cc3c(cc21)OCO3
Reply | 7980 ng·h/mL

---

method-notes: Quantitative solubility by HPLC in organic solvents and surfactants
Format: physicochemical
setup-conditions: H2O with Kolliphor EL 10% w/v, aqueous with cosolvent or surfactant or cyclodextrin, thermodynamic from solid; H2O, Kolliphor EL 10% w/v; read-out: Solubility (n = 2) by HPLC
attribute-measured: solubility (µg/mL)
Respond numerically; units are µg/mL and should not be typed.

Ask | Please give the measured solubility for this molecule: Cn1cc(C2=C(c3coc4ccc(F)cc34)C(=O)NC2=O)c2cc3c(cc21)OCO3
Reply | 120

---

method-notes: Phase 1 crossover PK study: oral solution fed/fasted vs IV infusion in healthy subjects
Type: in vivo, human
setup-conditions: human, plasma, iv, 3.3 mg/kg, IV infusion 3.3 mg/kg, human plasma; read-out: AUC∞ Median
attribute-measured: AUC(0-inf)
State the value with its unit after it.

Ask | Please give the measured AUC(0-inf) for this compound: Cn1cc(C2=C(c3coc4ccc(F)cc34)C(=O)NC2=O)c2cc3c(cc21)OCO3 [elraglusib]
Reply | 8260 ng·h/mL
